- method: Lipophilicity, log D of the compound
- Type: physicochemical
- measurement parameters: octanol/water
Rule: t for logD not less than 3, f for anything less.

given smiles: CCOC[C@H](Oc1ncnc2c1cnn2-c1ccccc1Cl)C(=O)Nc1cnc(C)cn1
label value: f
--
given smiles: CC(C)OC[C@H](Oc1ncnc2c1cnn2-c1ccccc1Cl)C(=O)Nc1ccccn1
label value: t
--
given smiles: Cc1ccc(NC(=O)[C@H](COC(C)C)Oc2ncnc3c2cnn3-c2ccccc2Cl)nc1
label value: t
--
given smiles: Cc1ccc(NC(=O)[C@H](COC(C)C)Oc2ncnc3c2cnn3-c2ncccc2Cl)nc1
label value: f
--
given smiles: CC(C)OC[C@H](Oc1ncnc2c1cnn2-c1ncccc1Cl)C(=O)Nc1ccc(F)cn1
label value: f

* * *

- Organism: Rattus norvegicus
- method: Unbound clearance in rat
- Format: ADME, organism-based
- measurement parameters: in vivo
parameter: log10 CL free (log10 of the value in mL/min/kg)

given smiles: Cc1cnc(NC(=O)[C@H](COC(C)C)Oc2ncnc3c2cnn3-c2ccccc2Cl)cn1
log10 CL free: 2.11
//
given smiles: Cc1ccc(NC(=O)[C@H](COC(C)C)Oc2ncnc3c2cnn3-c2ncccc2Cl)nc1
log10 CL free: 2.59
//
given smiles: Cc1ccc(NC(=O)[C@H](COC2CCC2)Oc2ncnc3c2cnn3-c2ncccc2Cl)nc1
log10 CL free: 3.18
//
given smiles: COCC[C@H](Oc1ncnc2c1cnn2-c1ccccc1Cl)C(=O)Nc1ccc(C)cn1
log10 CL free: 2.70
//
given smiles: CCOC[C@H](Oc1ncnc2c1cnn2-c1ccccc1Cl)C(=O)Nc1cnc(C)cn1
log10 CL free: 2.18

* * *

- study system: UniProtKB P35557
- Sequence (P35557 whole entry): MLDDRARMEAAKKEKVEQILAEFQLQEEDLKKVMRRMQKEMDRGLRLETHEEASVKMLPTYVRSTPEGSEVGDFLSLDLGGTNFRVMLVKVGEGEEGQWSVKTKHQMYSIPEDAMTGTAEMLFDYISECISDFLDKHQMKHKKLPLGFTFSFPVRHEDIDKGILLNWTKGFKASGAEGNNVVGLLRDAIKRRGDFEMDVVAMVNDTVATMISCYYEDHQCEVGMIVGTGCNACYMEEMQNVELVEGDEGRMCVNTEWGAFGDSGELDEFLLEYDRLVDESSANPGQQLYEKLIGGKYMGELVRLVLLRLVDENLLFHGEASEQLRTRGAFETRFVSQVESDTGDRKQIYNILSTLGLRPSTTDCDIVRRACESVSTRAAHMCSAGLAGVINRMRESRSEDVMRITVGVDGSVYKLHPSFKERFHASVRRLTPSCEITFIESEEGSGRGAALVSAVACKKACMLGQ
- method: Activity at glucokinase (unknown origin)
parameter: EC50

given smiles: CCOC[C@H](Oc1ncnc2c1cnn2-c1ncccc1Cl)C(=O)Nc1ccc(C)cn1
study system: UniProtKB P35557
parameter: EC50
result: 251 nM

given smiles: COC[C@H](Oc1ncnc2c1cnn2-c1ccccc1Cl)C(=O)Nc1ccc(C)cn1
study system: UniProtKB P35557
parameter: EC50
result: 316 nM

given smiles: CC(C)OC[C@H](Oc1ncnc2c1cnn2-c1ccccc1Cl)C(=O)Nc1ccccn1
study system: UniProtKB P35557
parameter: EC50
result: 126 nM

given smiles: COC[C@H](Oc1ncnc2c1cnn2-c1ncccc1Cl)C(=O)Nc1ccc(C)cn1
study system: UniProtKB P35557
parameter: EC50
result: 1580 nM

given smiles: CCOC[C@H](Oc1ncnc2c1cnn2-c1ncccc1Cl)C(=O)Nc1ccc(C#N)cn1
study system: UniProtKB P35557
parameter: EC50
result: 631 nM

given smiles: CC(C)OC[C@H](Oc1ncnc2c1cnn2-c1ncccc1Cl)C(=O)Nc1ccc(C#N)cn1
study system: UniProtKB P35557
parameter: EC50
result: 631 nM

given smiles: CC(C)OC[C@H](Oc1ncnc2c1cnn2-c1ccccc1Cl)C(=O)Nc1ccc(Cl)cn1
study system: UniProtKB P35557
parameter: EC50
result: 126 nM

given smiles: COC[C@H](Oc1ncnc2c1cnn2-c1ncccc1Cl)C(=O)Nc1cnc(C)cn1
study system: UniProtKB P35557
parameter: EC50
result: 5010 nM

given smiles: CC(C)OC[C@H](Oc1ncnc2c1cnn2-c1ncccc1Cl)C(=O)Nc1ccc(Cl)cn1
study system: UniProtKB P35557
parameter: EC50
result: 398 nM
